# selectivity ratio at 24 h values compiled below
experiment: Therapeutic index, ratio of CC50 for cytotoxicity against human HEK293T cells to ratio of IC50 for Down modulation of sortilin expression in HEK293T cells tranfected with GFP-tagged sortilin incubated for 24 hrs by flow cytometric analysis; format: toxicity, cell-based; conditions: read-out: TI
Answer with a number only.

Consider the reported selectivity ratio at 24 h for these compounds:
C=C1CN(S(=O)(=O)c2ccc(C)cc2)CCCN(CC2CCCCC2)CCCN(S(=O)(=O)c2ccc(OC)cc2)C1.Cl | 2.8
C=C1CN(S(=O)(=O)c2ccc(C)cc2)CCCN(CC2CCCCC2)CCCN(S(=O)(=O)c2ccc(OCCO)cc2)C1.Cl | 1.7

Continue with the next compound.
For C=C1CN(S(=O)(=O)c2ccc(OC)cc2)CCCN(CC2CCCCC2)CCCN(S(=O)(=O)c2ccc(N(C)C)cc2)C1.Cl the compound record lists selectivity ratio at 24 h as 10
